Hey, just so you know, these numbers are from the Immune Epitope Database (IEDB).

biological target: HLA-A*02:03; experiment: IEDB peptide-MHC binding, purified MHC/direct/fluorescence; filed as Kd, often an IC50 or EC50 that approximates it; bounds were set here for any values at or beyond the usual limits of such assays; details: source organism: Ebola virus Yambio0403
pKd: −log10 of the molar value.
measurement.name: pKd

Query (sequence): SWHHTSDDF ; field requested: pKd
≤ 4.70

----------
biological target: HLA-A*01:01; assay: IEDB peptide-MHC binding, purified MHC/direct/fluorescence; filed as Kd, often an IC50 or EC50 that approximates it; bounds were set here for any values at or beyond the usual limits of such assays; details: source organism: Corynebacterium glutamicum
measurement.name: Kd

Consider the sequence shown here: FLPGQYMNI What is its recorded Kd?
≥ 20 µM

----------
target: HLA-A*02:01; assay: IEDB peptide-MHC binding, purified MHC/competitive/fluorescence; bounds were set here for any values at or beyond the usual limits of such assays; settings: source organism: Zaire ebolavirus
measurement.name: IC50

Example entries begin here.
Notebook entry, HLA-A*02:01 assay: IC50 of LMNFHQKKN = ?
≥ 123 µM

Item ELLPAVSSG with HLA-A*02:01 - IC50?
≥ 194 µM

Enter reported IC50 observed with HLA-A*02:01 for STLAGVNVG
≥ 105 µM

Enter reported IC50 observed with HLA-A*02:01 for KEGAFFLYD
≥ 3840 µM

Test system HLA-A*02:01; read-out IC50; what value for SLEEEYPPW ?
≥ 214 µM

Can you look up IC50 on HLA-A*02:01 for AAIGLAWIP ?
≥ 280 µM

Observed IC50 on HLA-A*02:01 for TNFLIKFLL , please.
≥ 181 µM

Value wanted: IC50 (HLA-A*02:01) of entry IIQAFEAGV
2.47 µM

Required: IC50, one value per sequence below.
1. RLMRTNFLI
2. HILRSQGPF
3. LSAIALGVA

0.514 µM
≥ 519 µM
25.8 µM

Given the entry DGQQFYWPV , what IC50 was observed with HLA-A*02:01?
57.2 µM

----------
target: HLA-A*03:01; assay: IEDB peptide-MHC binding, purified MHC/competitive/radioactivity; filed as Kd, often an IC50 or EC50 that approximates it; bounds were set here for any values at or beyond the usual limits of such assays; settings: source organism: Triticum aestivum
measurement.name: Kd (nM)
Answers are plain numbers, in nM.

What value of Kd on HLA-A*03:01 does QQQQQQQQK have?
2110

----------
target: HLA-B*08:01; assay: IEDB peptide-MHC binding, purified MHC/competitive/radioactivity; filed as Kd, often an IC50 or EC50 that approximates it; bounds were set here for any values at or beyond the usual limits of such assays; conditions: source organism: Dengue virus 3 Martinique/1243/1999
measurement.name: Kd (µM)
One number for each entry, in µM.

Dear colleague, I am looking for the recorded Kd of the following sequence: LQWIASAIVL
4.97

----------
target: HLA-B*08:02; assay: IEDB peptide-MHC binding, purified MHC/direct/fluorescence; filed as Kd, often an IC50 or EC50 that approximates it; bounds were set here for any values at or beyond the usual limits of such assays; conditions: source organism: West Nile virus strain PTRoxo
pKd: −log10 of the molar value.
measurement.name: pKd

Which pKd value belongs to KCRVKMEKL ?
≤ 4.70
